This collection of values is drawn from paper PMC12416549.

- Tested on: T1, TNFR1 (Homo sapiens, UniProt P19438)
- T1 chain: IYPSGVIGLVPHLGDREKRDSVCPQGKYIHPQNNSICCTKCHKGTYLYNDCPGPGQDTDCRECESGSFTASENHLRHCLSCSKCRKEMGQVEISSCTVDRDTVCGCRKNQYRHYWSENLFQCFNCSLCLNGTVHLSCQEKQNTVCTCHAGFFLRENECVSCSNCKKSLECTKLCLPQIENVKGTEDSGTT
- Experimental details: yeast display SC50
Give measured apparent Kd (screen) for each item. Keep answers brief.
Give bare numbers, in nM.

Answered cases to consult:
Binder	Assay metric	Endpoint result
R21C (designed binder) MTLQELLREEALRRAEAEAFCYALELLAEKFPEQKEYLLDLAEEIESQIRSLSGVDVEDVRKFLDKEWAWVKELLAEHPAELAEVEAARAARLAELRAEVEAKVAA	apparent Kd (screen)	0.718
L52M (designed binder) MTLQELLREEALRRAEAEAFRYALELLAEKFPEQKEYLLDLAEEIESQIRSMSGVDVEDVRKFLDKEWAWVKELLAEHPAELAEVEAARAARLAELRAEVEAKVAA	apparent Kd (screen)	15.2
R14G (designed binder) MTLQELLREEALRGAEAEAFRYALELLAEKFPEQKEYLLDLAEEIESQIRSLSGVDVEDVRKFLDKEWAWVKELLAEHPAELAEVEAARAARLAELRAEVEAKVAA	apparent Kd (screen)	0.539

# ---- query binder ----
Query apparent Kd (screen) for D40G (designed binder) MTLQELLREEALRRAEAEAFRYALELLAEKFPEQKEYLLGLAEEIESQIRSLSGVDVEDVRKFLDKEWAWVKELLAEHPAELAEVEAARAARLAELRAEVEAKVAA
1.05
